# System: PPARg homodimer (NR concentration 180 nM)
# assay-name: PBM binding z-score (relative to random genomic background probes); higher = stronger binding; sequences stand for … in GC…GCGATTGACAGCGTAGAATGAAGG
assay-readout: PBM binding z-score

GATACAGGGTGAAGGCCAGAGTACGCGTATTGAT
-0.218
ACTAGTTGTTCAGCTGAGGTCACACACAATTCGG
2.16
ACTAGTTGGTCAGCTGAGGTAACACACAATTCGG
0.0938
CTATGTAGGTTAAGGGGGACATTCAGTTTGAAAG
2.11
CGAACTAGCTCAAGGACAGTGAATCTCCGCACGC
-0.00792
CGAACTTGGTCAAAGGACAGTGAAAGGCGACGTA
0.499

---

# Tested on: RARa:RXR (NR concentration 270 nM, RXRa partner concentration 90 nM)
# assay-name: PBM binding z-score (relative to random genomic background probes); higher = stronger binding; sequences stand for … in GC…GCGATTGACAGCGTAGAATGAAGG
assay-readout: PBM binding z-score

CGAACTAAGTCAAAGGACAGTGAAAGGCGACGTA
0.156
TCGAGTAGGTTACGGGGGCATACAGGGATGAAGA
3.27
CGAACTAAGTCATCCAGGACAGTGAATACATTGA
0.371
TGTCAGAGTTCAAAGGTAACGTAAGTATCCACAC
7.02
TCTCGGAGGACACGAAAGGTGAGAGCTCGACATC
1.05
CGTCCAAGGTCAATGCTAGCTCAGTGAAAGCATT
3.92
CGAAGTAGGTCAAAGGACAGTGAAAGGCGACGTA
2.53
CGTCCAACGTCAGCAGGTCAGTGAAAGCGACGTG
0.556
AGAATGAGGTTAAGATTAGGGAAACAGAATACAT
2.11
ATATGTATGTTAGGGTCATTCAGAAAGTAGGGAA
4.82
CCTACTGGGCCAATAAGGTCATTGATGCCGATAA
3.56
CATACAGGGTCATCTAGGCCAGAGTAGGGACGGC
4.05

---

# System: RXRa DBDmut IVT, anti-RXR (DBD mutation: RXRa K156A/R161A, NR concentration 90 nM)
# assay-name: PBM binding z-score (relative to random genomic background probes); higher = stronger binding; sequences stand for … in GC…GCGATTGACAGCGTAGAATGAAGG
Below: a set of entries, each annotated with reported PBM binding z-score.
assay-readout: PBM binding z-score

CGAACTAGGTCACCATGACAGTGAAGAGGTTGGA
1.18
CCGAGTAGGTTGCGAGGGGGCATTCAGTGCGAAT
1.58
CGTGCAAGGTCAGAGAGGTCAGTGAATGCCGAGT
3.07
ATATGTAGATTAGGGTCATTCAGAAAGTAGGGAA
2.09
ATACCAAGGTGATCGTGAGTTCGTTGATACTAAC
1.2
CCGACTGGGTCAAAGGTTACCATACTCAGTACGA
1.23
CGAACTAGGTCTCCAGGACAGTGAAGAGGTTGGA
-0.342
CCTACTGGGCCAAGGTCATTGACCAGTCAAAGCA
0.966
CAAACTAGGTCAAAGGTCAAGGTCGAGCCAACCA
3.18
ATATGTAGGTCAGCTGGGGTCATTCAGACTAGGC
2.43
ATCGAAAGGTCGTGAGGTGACTATACAGAAAGGC
1.29
CGTCCAAGGTCAATGTTAGGTCAGTGAAAGCATT
3.6
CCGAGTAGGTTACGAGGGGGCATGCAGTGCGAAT
1.12
ATATGTAGGTTAGGGCCATTCAGAAAGTAGGGAA
0.769
CTATGTAGTTTAAGGGGGTCATTCAGTTTGAAAG
3.27
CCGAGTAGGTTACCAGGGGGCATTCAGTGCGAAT
0.717
TCGAGTAGGTTACGGGGGCATCCAGGGATGAAGA
1.27
AGTCAAATTTCATCTAGGTAACGTAAGATATGCT
0.077
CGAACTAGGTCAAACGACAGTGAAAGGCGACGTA
1.76
CCTACTGTGCCATTCAGAGGTCATTGATCATATG
1.79
CGAACTAGGTGACCAGGACAGTGAAGAGGTTGGA
-0.229
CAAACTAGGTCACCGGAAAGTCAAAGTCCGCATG
2.01
CCGAGTAGGATACGAGGGGGCATTCAGTGCGAAT
0.527
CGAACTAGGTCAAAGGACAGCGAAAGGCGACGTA
1.85
CCTTACGGGTCTCTCCAGGTTATAGCATCGGAGT
-0.347
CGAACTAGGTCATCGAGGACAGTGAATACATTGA
2.23

---

# Test system: VDR homodimer (NR concentration 270 nM)
# assay-name: PBM binding z-score (relative to random genomic background probes); higher = stronger binding; sequences stand for … in GC…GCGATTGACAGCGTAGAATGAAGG
Below: a set of entries, each annotated with reported PBM binding z-score.
assay-readout: PBM binding z-score

CTATGTAGGGTAAGGGGGTCATTCAGTTTGAAAG
6.62
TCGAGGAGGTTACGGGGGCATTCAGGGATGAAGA
3.86
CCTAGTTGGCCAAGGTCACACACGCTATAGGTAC
3.38
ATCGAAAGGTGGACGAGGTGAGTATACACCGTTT
-0.347
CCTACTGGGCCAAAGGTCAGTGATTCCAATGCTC
0.516
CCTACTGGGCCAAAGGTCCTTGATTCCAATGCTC
-0.217
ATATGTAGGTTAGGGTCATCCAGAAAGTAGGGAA
3.58
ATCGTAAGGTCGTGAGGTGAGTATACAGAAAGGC
1.45
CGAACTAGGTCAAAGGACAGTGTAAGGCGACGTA
0.391
CCTACTGGGCCAAGGTCTTTGATCAGTCAAAGCA
-0.659
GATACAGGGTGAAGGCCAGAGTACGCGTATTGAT
-0.248
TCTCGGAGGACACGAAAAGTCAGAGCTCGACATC
-0.252
TAGCCTAGGTCATTCAGGGGCTAGTATAGAAAGC
0.805
TCTAGTTGGTCACGGGGGTCACACACGACGGGTA
4.15
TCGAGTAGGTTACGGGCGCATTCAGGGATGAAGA
-0.375
TTACAAAGGTGAAAGGTCGTTGATGCACGCCTTG
1.64
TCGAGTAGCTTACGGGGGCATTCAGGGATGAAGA
2.71
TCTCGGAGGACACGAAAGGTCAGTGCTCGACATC
1.24
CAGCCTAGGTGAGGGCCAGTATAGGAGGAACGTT
-0.734
CTATGTAGGCTAAGGGGGTCATTCAGTTTGAAAG
4.02
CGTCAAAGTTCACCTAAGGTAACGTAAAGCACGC
4.19
CAAACTAGGTCAAAGGTCAGAGTCGAGCCAACCA
2.39
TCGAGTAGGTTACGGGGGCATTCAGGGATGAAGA
2.57
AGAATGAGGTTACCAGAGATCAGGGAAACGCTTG
0.106
GCTGCTAGGTCAACTGATGGTCAGCTAGAGCTCG
0.0219
TAGCCTAGGTCCTTCAGGGGCCAGTATAGAAAGC
-0.422

---

# System: RARa homodimer (NR concentration 270 nM)
# assay-name: PBM binding z-score (relative to random genomic background probes); higher = stronger binding; sequences stand for … in GC…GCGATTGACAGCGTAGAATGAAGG
assay-readout: PBM binding z-score

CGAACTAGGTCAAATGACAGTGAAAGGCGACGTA
0.892
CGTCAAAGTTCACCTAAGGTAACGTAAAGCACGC
0.893
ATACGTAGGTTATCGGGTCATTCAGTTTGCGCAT
0.759
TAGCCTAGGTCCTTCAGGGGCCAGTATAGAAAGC
-0.852
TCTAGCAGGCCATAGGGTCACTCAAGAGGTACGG
0.229
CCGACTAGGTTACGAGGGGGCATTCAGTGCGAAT
0.38
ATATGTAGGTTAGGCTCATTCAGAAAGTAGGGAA
0.657
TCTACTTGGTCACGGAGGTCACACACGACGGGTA
2.04
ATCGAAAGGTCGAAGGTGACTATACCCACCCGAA
0.973
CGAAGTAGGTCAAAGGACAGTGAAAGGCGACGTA
0.312
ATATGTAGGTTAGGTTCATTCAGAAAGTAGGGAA
1.68
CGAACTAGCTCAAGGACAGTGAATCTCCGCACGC
-0.143
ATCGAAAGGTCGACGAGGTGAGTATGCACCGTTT
0.243
ACTTGGAGGACAAAGGTCAGAGCTACGCCAGTGA
2.6
TCGAGTAGGTTACGTGGGCATTCAGGGATGAAGA
-0.517
CCGAGTAGGTTAGGAGGGGGCATTCAGTGCGAAT
0.952
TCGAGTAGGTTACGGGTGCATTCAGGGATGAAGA
-0.909
TTACCAAGGTGAACTGAGGTCGTTGATCCAACTC
-0.75
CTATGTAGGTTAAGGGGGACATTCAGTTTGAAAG
1.11
ATTTGTAGGTTATCGGGTCATTCAGTTTGCGCAT
2.71
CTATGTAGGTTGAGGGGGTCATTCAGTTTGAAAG
2.23
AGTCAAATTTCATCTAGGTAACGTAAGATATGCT
0.837
ATCGAAAGGTCGCAGGTGAGTATACCCACCCGAA
0.721
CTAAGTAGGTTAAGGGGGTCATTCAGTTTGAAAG
1.86
AACGAAAGGTCGACGAGGTGAGTATACACCGTTT
0.305
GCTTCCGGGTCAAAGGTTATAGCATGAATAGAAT
0.795
